- EXPERIMENTAL_TARGET: T1, human CD40 full-length (human, UniProt P25942 21-277)
- T1 construct: Also used for CD40 of Daudi cells, of CD40-expressing HEK293 cells and of the BPS CD40/NFkB HEK293 reporter cells where the row says so; also called CD4001012; CHOK1SV/CD40
- T1 sequence (P25942 21-277): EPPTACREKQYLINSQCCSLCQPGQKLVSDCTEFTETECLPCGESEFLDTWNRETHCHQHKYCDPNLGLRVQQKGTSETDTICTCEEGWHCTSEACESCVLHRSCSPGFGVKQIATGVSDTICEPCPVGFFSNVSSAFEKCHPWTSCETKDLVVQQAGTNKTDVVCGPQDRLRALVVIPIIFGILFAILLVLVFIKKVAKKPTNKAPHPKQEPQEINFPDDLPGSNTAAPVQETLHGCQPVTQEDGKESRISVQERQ
- TEST_METHOD_NOTES: flow cytometry, CHOK1SV/human CD40 cells

- BINDER: "CD4001194 (Fc fusion, humanized 1D5 variant; not shown: wild-type human IgG1 Fc and the Fc-scFv linker) scFv: DIQMTQSPSSVSASVGDRVTITCRSSQSLLFSVNQKNYLAWYQQKPGKAPKLLIYWASTRESGVPDRFSGSGSGTDFTLTISSLQPEDFATYYCQHYYSYPWTFGQGTKVEIKGGGGSGGGGSGGGGSGGGGSQVQLVQSGAEVKKPGSSVKVSCKASGYTFSTSWISWVRQAPGQGLEWMGGILPGSGSTNYNEKFKGKVTITADTSTSTAYMELSSLRSEDTAVYYCARGDDGSYVRWYFDHWGQGTLVTVSS"
  binding result: "binds"
- BINDER: "CD4001190 (Fc fusion, humanized 1D5 variant; not shown: wild-type human IgG1 Fc and the Fc-scFv linker) scFv: DIQMTQSPSSVSASVGDRVTITCRASQSLLFSVNQKNYLAWYQQKPGKAPKLLIYWASSRQSGVPDRFSGSGSGTDFTLTISSLQPEDFATYYCQHYYSYPWTFGQGTKVEIKGGGGSGGGGSGGGGSGGGGSQVQLVQSGAEVKKPGSSVKVSCKATGYTFSTSWIEWIRQAPGQGLEWIGSILPGSGSTNYNEKFKGKATFTADTSTSTAYMELSSLRSEDTAVYYCARGDDGSYVRWYFDHWGQGTLVTVSS"
  binding result: "binds"
- BINDER: "CD4001196 (Fc fusion, humanized 1D5 variant; not shown: wild-type human IgG1 Fc and the Fc-scFv linker) scFv: DIQMTQSPSSVSASVGDRVTITCRSSQSLLFSVNQKNYLAWYQQKPGKAPKLLIYWASTRESGVPDRFSGSGSGTDFTLTISSLQPEDFATYYCQHYYSYPWTFGQGTKVEIKGGGGSGGGGSGGGGSGGGGSQVQLVQSGAEVKKPGSSVKVSCKASGYTFSTSWISWVRQAPGQGLEWIGGILPGSGSTNYNQKFQGRATFTADTSTSTAYMELSSLRSEDTAVYYCARGDDGSYVRWYFDHWGQGTLVTVSS"
  binding result: "binds"
